target: Melanocortin receptor 5 (Mus musculus); assay: Agonist activity at mouse MC5R expressed in HEK293 cells by beta-galactosidase reporter gene assay; format: functional, cell-based
Sequence (P41149 whole entry): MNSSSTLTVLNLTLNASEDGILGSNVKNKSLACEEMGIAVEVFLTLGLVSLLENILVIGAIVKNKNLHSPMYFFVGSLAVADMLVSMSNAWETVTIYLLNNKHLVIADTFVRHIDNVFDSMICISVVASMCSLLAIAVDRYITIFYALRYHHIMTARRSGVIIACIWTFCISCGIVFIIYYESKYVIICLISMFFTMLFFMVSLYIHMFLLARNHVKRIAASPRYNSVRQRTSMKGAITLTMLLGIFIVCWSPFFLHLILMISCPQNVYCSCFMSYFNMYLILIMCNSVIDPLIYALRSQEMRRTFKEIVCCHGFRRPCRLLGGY
Numbered stars: 1 amine (or outer) side, 2 acyl side, 3 side chain; on linkers, the order of the positions; unused ones are H or OH. Bridge positions count the residues as written; N and C are the ends. Square brackets hold non-standard residues; d marks the D form. Peptide text beside a SMILES is read from it. N(2-Aminoethyl)Gly = O=C(CN(CCN[*:3])[*:1])[*:2]; Adipoyl = O=C(CCCCC(=O)[*:2])[*:1]; Glutaryl = O=C(CCCC(=O)[*:2])[*:1]; Suc = O=C(CCC(=O)[*:2])[*:1]; Nphe = O=C(O)CNCc1ccccc1
RECORDED_METRIC: EC50 (nM)

N=C(N)NCCC[C@@H]1NC(=O)CN(Cc2ccccc2)C(=O)CN(Cc2ccccc2)C(=O)CCC(=O)NCCN(CC(N)=O)C(=O)[C@H](Cc2c[nH]c3ccccc23)NC1=O ([Nphe][Nphe]RW[N(2-Aminoethyl)Gly]-NH2; linker N-5 via Suc)
2950
N=C(N)NCCC[C@@H]1NC(=O)[C@@H](Cc2ccccc2)NC(=O)CN(Cc2ccccc2)C(=O)CCCCC(=O)NCCN(CC(N)=O)C(=O)[C@H](Cc2c[nH]c3ccccc23)NC1=O
8.1
N=C(N)NCCC[C@@H]1NC(=O)[C@@H](Cc2ccccc2)NC(=O)CN(Cc2ccccc2)C(=O)CCCC(=O)NCCN(CC(N)=O)C(=O)[C@H](Cc2c[nH]c3ccccc23)NC1=O
310
NC(=O)CN1CCNC(=O)CCCCC(=O)N(Cc2ccccc2)CC(=O)N(Cc2ccccc2)CC(=O)N[C@@H](CCCN=C(N)N)C(=O)N[C@@H](Cc2c[nH]c3ccccc23)C1=O ([Nphe][Nphe]RW[N(2-Aminoethyl)Gly]-NH2; linker N-5 via Adipoyl)
320

P. CC(=O)NCC(=O)N[C@@H](Cc1ccccc1)C(=O)N(CC(=O)N[C@@H](CCCNC(=N)N)C(=O)N[C@@H](Cc1c[nH]c2ccccc12)C(=O)NCC(N)=O)Cc1ccccc1 (HELM PEPTIDE1{[ac].G.F.[O=C(CN(Cc1ccccc1)[*:1])[*:2]].R.W.G.[am]}$$$$V2.0)
Q. NC(=O)CN1CCNC(=O)CCCCC(=O)N[C@@H](Cc2ccccc2)C(=O)N(Cc2ccccc2)CC(=O)N[C@@H](CCCN=C(N)N)C(=O)N[C@@H](Cc2c[nH]c3ccccc23)C1=O (F[Nphe]RW[N(2-Aminoethyl)Gly]-NH2; linker N-5 via Adipoyl)
R. NC(=O)CN1CCNC(=O)CCCC(=O)N[C@@H](Cc2ccccc2)C(=O)N(Cc2ccccc2)CC(=O)N[C@@H](CCCN=C(N)N)C(=O)N[C@@H](Cc2c[nH]c3ccccc23)C1=O (F[Nphe]RW[N(2-Aminoethyl)Gly]-NH2; linker N-5 via Glutaryl)
IN: Reorder: EC50, max to min. Please, when replying, give the labels in the order that was requested.
OUT: R, Q, P

I. NC(=O)CN1CCNC(=O)CCCC(=O)N(Cc2ccccc2)CC(=O)N(Cc2ccccc2)CC(=O)N[C@@H](CCCN=C(N)N)C(=O)N[C@@H](Cc2c[nH]c3ccccc23)C1=O ([Nphe][Nphe]RW[N(2-Aminoethyl)Gly]-NH2; linker N-5 via Glutaryl)
II. CC(=O)NCC(=O)N(CC(=O)N[C@H](Cc1ccccc1)C(=O)N[C@@H](CCCNC(=N)N)C(=O)N[C@@H](Cc1c[nH]c2ccccc12)C(=O)NCC(N)=O)Cc1ccccc1
IN: Given the listed items, does I or II have the lesser reported EC50? Respond with the label that goes with your answer.
OUT: I
(I: 350 nM, II: 3430 nM)
